Test system: SK-MEL-2 melanoma
assay_remarks: NCI tumour cell line growth inhibition, 48 h
Decide using TGI: a value greater than or equal to 60 µM is fulfilled, a smaller one is not fulfilled.

Quick check: does O=C(CCC(=O)c1ccc(Cl)cc1)NO have TGI greater than or equal to 60 µM?
fulfilled

Next compound up: COC(CN1C(=O)c2cccc3cccc(c23)C1=O)OC
fulfilled

Next compound up: Cc1cn(C2CC(N(O)C(N)=O)C(CO)O2)c(=O)[nH]c1=O (stereo not given)
fulfilled

Next compound up: O=C(/C=C/C12c3ccccc3C(c3ccccc31)C1C(=O)NC(=O)C12)c1ccncc1 (stereo not given)
not fulfilled

Next compound up: O=c1[nH]cc(N=Cc2cc(Cl)cc(Cl)c2O)c(=O)[nH]1
not fulfilled

Next compound up: NC(=O)C(c1ccccc1)N1OC2C(=O)N(c3ccccc3)C(=O)C2C1c1c2ccccc2c(Cl)c2ccccc12 (stereo not given)
fulfilled

Next compound up: COc1cc(Cc2cnc(/N=C3\C(=O)N(CN4CCN(c5c(F)cc6c(=O)c(C(=O)O)cn(C7CC7)c6c5OC)CC4C)c4ccc(F)cc43)nc2N)cc(OC)c1OC (stereo not given)
fulfilled

Next compound up: CCc1ccc(CCN2CCCCC2)nc1
fulfilled

Next compound up: COc1cc(/C=N/NC(=O)c2ccc(C(F)(F)F)nc2Nc2ccc(Cl)cc2C)ccc1O
not fulfilled

----------
Tested on: SR leukemia
assay_remarks: NCI tumour cell line growth inhibition, 48 h
measure: TGI

Form field: reported TGI of N#CC1C(C#N)C2(c3ccccc3)C(c3ccccc3)=NN(c3ccccc3)CC12 (stereo not given)
> 100 µM

Next molecule up: Cc1coc2c1CC1(C)C(CCC(O)C1C)C2 (stereo not given)
> 100 µM

Next molecule up: CC1=C(C)[C@@]2(C)O[C@@]2(C)O[C@@]2(C)O[C@@]12C
> 100 µM

Next molecule up: Cc1ccc(SCC(CSCCO)OCn2cnc3c2NC(N)=NC32OCCO2)cc1 (stereo not given)
> 100 µM

Next molecule up: CN/N=C(/Cc1occc(=O)c1O)C(=O)Nc1ccccc1C
> 100 µM

Next molecule up: CCOC(=O)CN1C(=O)c2cccc3cc([N+](=O)[O-])cc(c23)C1=O
0.381 µM

Next molecule up: COc1ccc(CNc2nc(NCc3ccc(OC)c(OC)c3)nc(NC3CCCCC3)n2)cc1
> 100 µM

Next molecule up: CCC1(O)CC2CC(=O)OC2C1O (stereo not given)
> 100 µM

Next molecule up: O=C(Cc1cccs1)N[C@@H]1C(=O)N2C(C(=O)OC(c3ccccc3)c3ccccc3)=C(CO)CS[C@H]12
> 100 µM

Next molecule up: Oc1ccc(-c2nc(-c3cccnc3)c(-c3ccc(F)cc3)[nH]2)cc1
85 µM

----------
What TGI was measured for each of the following?
System: SNB-19 CNS
assay_remarks: NCI tumour cell line growth inhibition, 48 h

Recall the recorded TGI for O=C1C(Cl)=C(Nc2cccc(Cl)c2)C(=O)N1Cc1ccc(Cl)cc1Cl with SNB-19 CNS and state it.
18 µM

Next molecule up: O=C1C(=Cc2ccc(O)cc2)N=C(c2ccccc2)N1n1c(-c2ccccc2)nc2ccccc2c1=O
> 100 µM

Next molecule up: Oc1ccc(-c2nc(-c3cccnc3)c(-c3ccc(F)cc3)[nH]2)cc1
60.8 µM

Next molecule up: CC[C@@]1(O)C[C@H](OC2CC(N(C)C)C(O)C(C)O2)c2c(O)c3c(c(O)c2[C@H]1OC1CC(N(C)C)C(O)C(C)O1)C(=O)c1cccc(O)c1C3=O (stereo partly drawn)
11.1 µM

Next molecule up: O=S1(=O)NC(=NCc2c[nH]c3ccccc23)N(c2ccccc2)c2ccncc21
> 100 µM

Next molecule up: C/C(CC(=O)CCC(=O)Nc1cccc(C(F)(F)F)c1)=N\NC(=O)NN
> 100 µM

Next molecule up: O=C(Nc1ccccc1OC(F)(F)F)Nc1n[nH]c2ccccc12
> 100 µM

Next molecule up: CNS(=O)(=O)NNS(=O)(=O)c1ccc2ccccc2c1
> 100 µM

Next molecule up: COc1ccc2c3c1C(=O)CCCC3CO2 (stereo not drawn)
> 100 µM

Next molecule up: CC(=O)O[C@H]1C(=O)[C@]2(C)[C@@H](OC(=O)OCCC(O)CO)C[C@H]3OC[C@@]3(OC(C)=O)[C@H]2[C@H](OC(=O)c2ccccc2)[C@]2(O)C[C@H](OC(=O)[C@H](O)[C@@H](NC(=O)c3ccccc3)c3ccccc3)C(C)=C1C2(C)C (stereo partly drawn)
88.4 µM

Next molecule up: Cc1cc(N(CCC#N)CCC#N)ccc1/C(N=Nc1ccc(Cl)cc1)=N\NC(=O)c1ccccc1
> 100 µM

Next molecule up: O=C1/C(=C/c2ccc(O)cc2)CC/C1=C\c1ccc(O)cc1
> 100 µM

Next molecule up: Cc1cc(=O)[nH]c(NN2C(Cl)C(=O)C2c2ccccc2O)n1 (stereo not drawn)
> 100 µM

Next molecule up: COc1ccc(C(OCC2OC(n3cc(C)c(=O)[nH]c3=O)CC2n2cc(Cn3cc(I)c(=O)[nH]c3=O)nn2)(c2ccccc2)c2ccccc2)cc1 (stereo not drawn)
> 100 µM

Next molecule up: O=C(COc1ccc(Br)cc1Br)N1N=C(c2ccc([N+](=O)[O-])o2)CC1(O)c1ccccc1 (stereo not drawn)
68.2 µM

Next molecule up: C=C(CN1CCN(c2ccc(Cl)cc2F)CC1)c1ccc(C(=O)Nc2ccccc2N)cc1
> 34.3 µM

Next molecule up: CC(C)c1ccc(/C=C2/C=C(c3ccc4ccccc4c3)OC2=O)cc1
> 100 µM

Next molecule up: C[C@]12CC[C@H](O)CC1=CC[C@@H]1C2CC[C@]2(C)C(=O)N(N)C(=O)CC12 (stereo partly drawn)
> 100 µM

----------
Tested on: CAKI-1 renal
assay_remarks: NCI tumour cell line growth inhibition, 48 h; in the data active = GI50 below about 0.43 µM; inactive = the rest
Pick one and only one: active, inactive

Status in this test for CC1=C(C(=O)Nc2ccc(Cl)c(Cl)c2)C(c2cccc(Oc3ccccc3)c2)NC(=S)N1 (stereo unspecified) ?
inactive

Next molecule up: CC/C=C\CCC/C=C1/C(=O)C=C[C@@H]1C/C=C\CCCC(=O)OC
inactive

Next molecule up: O=C1CC(c2ccc3c(c2)OCO3)Nc2ccccc21 (stereo unspecified)
inactive

Next molecule up: O=C([O-])CC(=O)[O-].O=C([O-])CC(=O)[O-].[K+].[Pd+2]
inactive

Next molecule up: CC1(C)CCc2c(c3c(c4c(=O)c(O)c(-c5ccc(O)cc5)oc24)OC(C)(C)CC3)O1
inactive

Next molecule up: COc1ccc2c(C3=C(c4cn(C)c5ccccc45)C(=O)NC3=O)cn(C)c2c1
active

----------
System: OVCAR-5 ovarian
assay_remarks: NCI tumour cell line growth inhibition, 48 h
What TGI was measured for each of the following?
Your answer should be a plain number; it is taken to be in µM.

Form field: reported TGI of COc1cc(CNc2cnc3cc(N)cc(N)c3n2)cc(OC)c1
48

Next compound up: Cc1cc(I)cc(CN(C)CCCCN2CCCCC2)c1O
40.5

Next compound up: CCOC(=O)CN1C(=O)c2cccc3cc([N+](=O)[O-])cc(c23)C1=O
28.9

Next compound up: OCc1ccc(N2CCC2c2ccc(F)cc2)cc1Cl (stereo unspecified)
1.9

Next compound up: CC1=CC2C(O1)C1C(=O)C=CC(=O)C1=CC2[N+](=O)[O-] (stereo unspecified)
63.3

----------
What TGI was measured for each of the following?
Test system: U251 CNS
assay_remarks: NCI tumour cell line growth inhibition, 48 h

Form field: reported TGI of O=S1(=O)NC(=NCc2c[nH]c3ccccc23)N(c2ccccc2)c2ccncc21
> 100 µM

Next compound up: CCCNC1=C2CC(C)CC(OC)[C@@H](O)[C@H](C)/C=C(\C)C(OC(N)=O)C(OC)/C=C\C=C(/C)C(=O)NC(=CC1=O)C2=O (stereo partly drawn)
> 100 µM

Next compound up: CCCCCCCCCCCOc1ccc(C(=O)C(=O)c2ccc(OCCCCCCCCCCC)c(OCCCCCCCCCCC)c2)cc1OCCCCCCCCCCC
> 100 µM

Next compound up: O=C(O)c1ccccc1[Se][Se]c1ccccc1C(=O)O
> 100 µM

Next compound up: COC1=CC(=O)c2nc(-c3ccncc3)[nH]c2C1=O
> 100 µM

Next compound up: CN1C(=O)C(C)(C)C2(SC(C)(C)C2(C)C)N(C)C1=S (stereo not drawn)
> 100 µM

Next compound up: CC1C=C(CCCCCCCCCCCC[C@@H](O)[C@@H]2CC[C@@H]([C@@H]3CC[C@@H](C(O)CCCCCCCCCCCCC4=C[C@H](C)OC4=O)O3)O2)C(=O)O1 (stereo partly drawn)
> 100 µM

Next compound up: CCC12C=CCN3CCC4(C(=C(C(=O)OC)[C@@H]1O)Nc1ccccc14)C32 (stereo partly drawn)
5.52 µM

Next compound up: c1ccc2cc(-c3cc(-c4cc(-c5ccc6ccccc6c5)on4)no3)ccc2c1
> 100 µM

Next compound up: O=C(Nc1ccccc1)NS(=O)(=O)c1ccc(-n2nc3c(c2-c2cccs2)Cc2ccccc2-3)cc1
55.3 µM

Next compound up: Cc1ccc(SCC(CSCCO)OCn2cnc3c2NC(N)=NC32OCCO2)cc1 (stereo not drawn)
> 100 µM

Next compound up: CCOC(=O)C1=C(C)NC(=S)NC1c1ccccc1 (stereo not drawn)
> 56.2 µM

Next compound up: CCN(CCO)CC1CCCC2CCCCC21 (stereo not drawn)
> 100 µM

Next compound up: COC(=O)[C@H](Cc1c[nH]c2ccccc12)NP(=O)(O)OCC1C=CC(n2cc(C)c(=O)[nH]c2=O)O1 (stereo partly drawn)
> 100 µM

Next compound up: CC(=O)O[C@H]1C(=O)[C@]2(C)[C@@H](OC(=O)OCCC(O)CO)C[C@H]3OC[C@@]3(OC(C)=O)[C@H]2[C@H](OC(=O)c2ccccc2)[C@]2(O)C[C@H](OC(=O)[C@H](O)[C@@H](NC(=O)c3ccccc3)c3ccccc3)C(C)=C1C2(C)C (stereo partly drawn)
18 µM

Next compound up: O=CN/C=C/c1cc(O)ccc1O
> 66 µM

Next compound up: Cn1cnc([N+](=O)[O-])c1Sc1nnc(-c2cccnc2)n1C
> 100 µM

Next compound up: COC(CN1C(=O)c2cccc3cccc(c23)C1=O)OC
> 100 µM
